Just for reference, BigSolDB 2.1 is where these values come from.

Reported conditions: in ethylene glycol, 283.15 K
Metric name: solubility (mole fraction)
One number for each entry.

GET /values?readout=solubility (mole fraction)&item= Nc1ccc(C(=O)[O-])cc1.[K+]
0.0973

###

Reported conditions: in DMF, 313.15 K
Metric name: solubility (mole fraction)
Numbers only.

GET /values?readout=solubility (mole fraction)&item= Nc1ccc(C(=O)[O-])cc1.[K+]
0.00154

###

Reported conditions: in n-propanol, 333.15 K
Metric name: solubility (mole fraction)

GET /values?readout=solubility (mole fraction)&item= Nc1ccc(C(=O)[O-])cc1.[K+]
0.000981

###

Reported conditions: in DMF, 323.15 K
Metric name: solubility (mole fraction)
Give bare numbers.

GET /values?readout=solubility (mole fraction)&item= Nc1ccc(C(=O)[O-])cc1.[K+]
0.00159

###

Reported conditions: in isopropanol, 293.15 K
Metric name: solubility (mole fraction)

GET /values?readout=solubility (mole fraction)&item= Nc1ccc(C(=O)[O-])cc1.[K+]
0.000416

###

Reported conditions: in ethylene glycol, 333.15 K
Metric name: solubility (mole fraction)
Answers are plain numbers.

GET /values?readout=solubility (mole fraction)&item= Nc1ccc(C(=O)[O-])cc1.[K+]
0.172

###

Reported conditions: in isopropanol, 313.15 K
Metric name: solubility (mole fraction)
Give bare numbers.

GET /values?readout=solubility (mole fraction)&item= Nc1ccc(C(=O)[O-])cc1.[K+]
0.000496

###

Reported conditions: in formamide, 303.15 K
Metric name: solubility (mole fraction)
One number for each entry.

GET /values?readout=solubility (mole fraction)&item= Nc1ccc(C(=O)[O-])cc1.[K+]
0.104

###

Reported conditions: in ethanol, 333.15 K
Metric name: solubility (mole fraction)
One number for each entry.

GET /values?readout=solubility (mole fraction)&item= Nc1ccc(C(=O)[O-])cc1.[K+]
0.00252

###

Reported conditions: in water, 278.15 K
Metric name: solubility (mole fraction)

GET /values?readout=solubility (mole fraction)&item= Nc1ccc(C(=O)[O-])cc1.[K+]
0.092

###

Reported conditions: in isopropanol, 283.15 K
Metric name: solubility (mole fraction)
Give bare numbers.

GET /values?readout=solubility (mole fraction)&item= Nc1ccc(C(=O)[O-])cc1.[K+]
0.000366

###

Reported conditions: in n-propanol, 283.15 K
Metric name: solubility (mole fraction)
Answers are plain numbers.

GET /values?readout=solubility (mole fraction)&item= Nc1ccc(C(=O)[O-])cc1.[K+]
0.000852

###

Reported conditions: in formamide, 313.15 K
Metric name: solubility (mole fraction)

GET /values?readout=solubility (mole fraction)&item= Nc1ccc(C(=O)[O-])cc1.[K+]
0.112

###

Reported conditions: in water, 288.15 K
Metric name: solubility (mole fraction)
Give bare numbers.

GET /values?readout=solubility (mole fraction)&item= Nc1ccc(C(=O)[O-])cc1.[K+]
0.11

###

Reported conditions: in ethyl acetate, 323.15 K
Metric name: solubility (mole fraction)
One number for each entry.

GET /values?readout=solubility (mole fraction)&item= Nc1ccc(C(=O)[O-])cc1.[K+]
0.000219

###

Reported conditions: in n-propanol, 313.15 K
Metric name: solubility (mole fraction)

GET /values?readout=solubility (mole fraction)&item= Nc1ccc(C(=O)[O-])cc1.[K+]
0.000929

###

Reported conditions: in ethanol, 303.15 K
Metric name: solubility (mole fraction)
One number for each entry.

GET /values?readout=solubility (mole fraction)&item= Nc1ccc(C(=O)[O-])cc1.[K+]
0.00238
